Origin of the recorded values: paper PMC9896810

- experimental_system: T1, CrkL (full-length) (human, UniProt P46109 1-303)
- T1 construct: human CrkL, residues 1-303, in pETEV15b; also called Crk-like protein; source: E. coli BL21 (DE3), purified (IMAC, TEV digestion, SEC); not shown: His, N-terminal, cleaved
- T1 sequence (P46109 whole entry, the tested form may be a part): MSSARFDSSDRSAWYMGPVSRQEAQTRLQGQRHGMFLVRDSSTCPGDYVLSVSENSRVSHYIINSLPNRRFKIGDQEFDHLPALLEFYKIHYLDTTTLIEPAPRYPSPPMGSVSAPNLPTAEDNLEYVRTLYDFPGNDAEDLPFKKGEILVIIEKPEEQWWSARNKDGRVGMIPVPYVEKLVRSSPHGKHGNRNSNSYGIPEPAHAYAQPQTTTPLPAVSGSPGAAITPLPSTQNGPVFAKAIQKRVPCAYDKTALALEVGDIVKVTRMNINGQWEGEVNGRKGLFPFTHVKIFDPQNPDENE
- test_details: fluorescence polarisation; fluorescein-labelled peptide at 0.2 µM titrated with CrkL or CrkL W160S; 20 mM Tris-HCl, 150 mM NaCl, pH 7.5, 0.1 mg/ml BSA; 1:1 binding model; apparent kd
- condition_description: both partners purified
pKd: −log10 of the molar value. No end group written: not given here. fluorescein = N-terminal fluorescein probe
quantity_kind: pKd

binder: fluorescein-LAPPPALPPKQRQL (P4 Pro-rich motif of human C3G, residues 605-618; also called P4 peptide of C3G; source: synthetic peptide (custom synthesized, Thermo Scientific)) [P4 (Fluo-605-618)]
measured_result: 5.52
--
binder: fluorescein-TDTPPALPEKKRRS (P2 Pro-rich motif of human C3G, residues 450-463; also called P2 peptide of C3G; source: synthetic peptide (custom synthesized, Thermo Scientific)) [P2 (Fluo-450-463)]
measured_result: 5.66
--
binder: fluorescein-NGPPPALPPKKRQS (P1 Pro-rich motif of human C3G, residues 280-293; also called P1 peptide of C3G; source: synthetic peptide (custom synthesized, Thermo Scientific)) [P1 (Fluo-280-293)]
measured_result: 5.85
--
binder: fluorescein-PEKPPPLPEKKNKH (P3 Pro-rich motif of human C3G, residues 537-550; also called P3 peptide of C3G; source: synthetic peptide (custom synthesized, Thermo Scientific)) [P3 (Fluo-537-550)]
measured_result: 5.66
